# target_of_assay: b-Raf Wild-Type (Homo sapiens, UniProt P15056)
# Construct: recombinant human b-Raf residues 416-end
# Sequence (P15056 416-766 limits assumed): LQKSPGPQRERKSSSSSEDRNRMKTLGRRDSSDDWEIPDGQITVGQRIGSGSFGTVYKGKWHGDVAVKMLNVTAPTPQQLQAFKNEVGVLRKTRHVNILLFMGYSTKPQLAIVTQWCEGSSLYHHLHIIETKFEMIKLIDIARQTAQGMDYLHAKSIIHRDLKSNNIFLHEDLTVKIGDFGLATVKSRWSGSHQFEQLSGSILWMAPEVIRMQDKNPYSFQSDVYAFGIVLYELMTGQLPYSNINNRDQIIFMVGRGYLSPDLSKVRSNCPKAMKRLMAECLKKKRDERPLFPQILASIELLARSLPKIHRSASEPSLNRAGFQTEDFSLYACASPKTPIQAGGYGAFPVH
# protocol_details: b-Raf wild-type HTRF assay with 6H-MEK as substrate (dose response)
# settings: recombinant human b-Raf wild-type residues 416-end, GST-tag
Structures can show the parent of a compound that is named as a salt.
quantity_kind: pIC50
Remember the convention: pIC50 equals -log10 of concentration in molar.

Illustrative cases are given below, each with its answer.
COc1ccc(Cn2nnc(-c3cccc(OCc4csc5c(C(=O)NCCO)cnc(N)c45)c3)n2)cc1    6.26
Cc1nnc(-c2ccc(C)c(OCc3csc4c(C(=O)NCCO)cnc(N)c34)c2)o1    6.93
Cc1ccc(-c2nnc(-c3ccc(Cl)cc3)o2)cc1OCc1csc2c(C(=O)NCCO)cnc(N)c12 [Example 49, trifluoroacetic acid salt]    5.29
Cn1nnc(-c2cccc(OCc3csc4c(C(=O)NCCO)cnc(N)c34)c2)n1    5.77
CCOC(=O)c1cnc(N)c2c(COc3cccc(-c4nnc(C)o4)c3)csc12    4.90
Cc1ccc(-c2cn(C)nn2)cc1OCc1csc2c(C(=O)NCCO)cnc(N)c12    7.35

Field: next compound
Input line: Query pIC50 for Cc1nnc(-c2cccc(OCc3csc4c(C(=O)NCCO)cnc(N)c34)c2)o1
Output line: 5.89

---

Where a name gives a salt, the structure may show the parent alone.
c-Raf (Homo sapiens) measurements of IC50, listed per entry.
Give the number; nM is assumed, so skip it.

CCOC(=O)c1cnc(N)c2c(COc3cccc(-c4nnc(C)o4)c3)csc12    5420
Cc1ccc(-c2nnc(-c3ccc(Cl)cc3)o2)cc1OCc1csc2c(C(=O)NCCO)cnc(N)c12 [Example 49, trifluoroacetic acid salt]    17
Cn1nnc(-c2cccc(OCc3csc4c(C(=O)NCCO)cnc(N)c34)c2)n1    341

Field: next compound
Input line: Query IC50 for Cc1ccc(-c2cn(C)nn2)cc1OCc1csc2c(C(=O)NCCO)cnc(N)c12
Output line: 11.9

---

# target_of_assay: b-Raf V600E Mutant (Homo sapiens, UniProt P15056, V600E)
# Construct: recombinant human b-Raf residues 416-end containing a V600E mutation
# Sequence (P15056 416-766 V600E): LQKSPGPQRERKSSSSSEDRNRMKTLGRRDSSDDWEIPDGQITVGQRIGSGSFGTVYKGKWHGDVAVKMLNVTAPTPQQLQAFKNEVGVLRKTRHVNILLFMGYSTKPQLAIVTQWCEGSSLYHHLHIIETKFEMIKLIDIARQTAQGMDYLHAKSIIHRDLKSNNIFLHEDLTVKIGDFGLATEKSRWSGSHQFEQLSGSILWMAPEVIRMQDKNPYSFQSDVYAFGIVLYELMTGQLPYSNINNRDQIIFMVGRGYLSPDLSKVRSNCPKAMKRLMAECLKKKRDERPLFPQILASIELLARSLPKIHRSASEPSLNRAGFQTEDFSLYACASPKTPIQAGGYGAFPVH
# protocol_details: b-Raf V600E mutant HTRF assay with 6H-MEK as substrate (dose response)
# settings: recombinant human b-Raf residues 416-end with V600E mutation, GST-tag
# Text: Kinase Enzyme Inhibition Assay (IC50) b-Raf V600E Mutant HTRF Assay with 6H-MEK as Substrate (Dose Response) The assay utilizes 6H-MEK as the substrate. Upon b-Raf V600E phosphorylation, phosphorylated 6H-MEK is detected with rabbit anti-phospho-MEK1/2, Eu-labeled anti-rabbit, and APC-labeled anti-6H antibodies. Reagents and Instruments: […] Reader: Envision from PerkinElmer, HTRF reading mode with 412 mirror […] (15) Read HTRF signals at 615 nm and 665 nm on the Envision. […]
Counter-ions that a name gives are not always drawn.
Label Met when IC50 is strictly below 300 nM; at or above that, label Not met.

Cc1ccc(-c2nnc(-c3ccc(Cl)cc3)o2)cc1OCc1csc2c(C(=O)NCCO)cnc(N)c12 [Example 49, trifluoroacetic acid salt]    Not met
Cc1nnc(-c2cccc(OCc3csc4c(C(=O)NCCO)cnc(N)c34)c2)o1    Not met
Cc1nnc(-c2ccc(C)c(OCc3csc4c(C(=O)NCCO)cnc(N)c34)c2)o1    Met

Input line: Does the reported IC50 of CCOC(=O)c1cnc(N)c2c(COc3cccc(-c4nnc(C)o4)c3)csc12 stay below 300 nM?
Output line: Not met

Input line: Does the reported IC50 of Cc1ccc(-c2cn(C)nn2)cc1OCc1csc2c(C(=O)NCCO)cnc(N)c12 stay below 300 nM?
Output line: Not met

Input line: Does the reported IC50 of Cn1nnc(-c2cccc(OCc3csc4c(C(=O)NCCO)cnc(N)c34)c2)n1 stay below 300 nM?
Output line: Met

Input line: Does the reported IC50 of COc1ccc(Cn2nnc(-c3cccc(OCc4csc5c(C(=O)NCCO)cnc(N)c45)c3)n2)cc1 stay below 300 nM?
Output line: Met
